Where do these numbers come from? They come from patent US20100305174A1.

System: TNF-α
Assay details: TNF-α inhibition in LPS-challenged human PBMC
Assay type: cell-based
Run parameters: Homo sapiens, PBMC; 1 μM, LPS 100 ng/mL, 20 hours; read-out: % Inhibition TNF alpha
Classification field: yes (1) = inhibition at 1 µM at or over 10%; no (0) = inhibition at 1 µM under 10%.

Example entries and their recorded answers appear below.
(Q) Confirm if inhibition at 1 µM reported for the compound CN1C(=O)OCC1Cc1ccc(Oc2ccc(/C=C3/C(=O)Nc4ccccc43)cc2F)cc1 (centres unmarked) is 10% or above.
(A) no (0)

(Q) Confirm if inhibition at 1 µM reported for the compound CCN1C(=O)OCC1Cc1ccc(Oc2ccc(/C=C3\C(=O)Nc4ccccc43)cc2C(F)(F)F)cc1 (centres unmarked) is 10% or above.
(A) yes (1)

(Q) Confirm if inhibition at 1 µM reported for the compound CCN1C(=O)OCC1Cc1ccc(Oc2ccc(/C=C3\C(=O)Nc4ccccc43)cc2)cc1 (centres unmarked) is 10% or above.
(A) no (0)

(Q) Confirm if inhibition at 1 µM reported for the compound CCN1C(=O)OCC1Cc1ccc(Oc2ccc(CC3C(=O)Nc4ccccc43)cc2C(F)(F)F)cc1 (centres unmarked) is 10% or above.
(A) no (0)

(Q) Confirm if inhibition at 1 µM reported for the compound CN1C(=O)OCC1Cc1ccc(Oc2ccc(CC3C(=O)Nc4ccccc43)cc2)cc1 (centres unmarked) is 10% or above.
(A) no (0)

(Q) Confirm if inhibition at 1 µM reported for the compound CCN1C(=O)OCC1Cc1ccc(Oc2ccc(/C=C3\C(=O)Nc4ccccc43)cc2Cl)cc1 (centres unmarked) is 10% or above.
(A) yes (1)

(Q) Confirm if inhibition at 1 µM reported for the compound CCN1C(=O)OCC1Cc1ccc(Oc2ccc(/C=C3\C(=O)Nc4ccccc43)cc2F)cc1 (centres unmarked) is 10% or above.
(A) yes (1)

For the next question, use this compound.
(Q) Confirm if inhibition at 1 µM reported for the compound CCN1C(=O)OCC1Cc1ccc(Oc2ccc(CC3C(=O)Nc4ccccc43)cc2OC)cc1 (centres unmarked) is 10% or above.
(A) yes (1)
